Value source: patent US20130303518A1

Target: recombinant human VEGF-R2 (Homo sapiens)
Experiment: VEGFR-2 kinase assay (ELISA, time-resolved fluorescence)
Details: recombinant human VEGF-R2, 10 μM ATP, 25° C., 30 minutes; read-out: IC50 (VEGFR-2/bio)
Exercise: for every item that follows, state its recorded pIC50.
Answers are plain numbers, as −log10 of the molar value.

Here are 3 molecules together with their reported answers.
Q: Which measured pIC50 value corresponds to Cc1c(/C=C2\C(=O)Nc3cc(NCc4ccc(F)cc4)c(F)cc32)[nH]c2c1C(=O)N(CCN1CCOCC1)CCC2 [Example 19] ?
Result: 7.92

Q: Please report the recorded pIC50 for CCN(CC)CCN1CCCc2[nH]c(/C=C3\C(=O)Nc4ccc(Br)cc43)c(C)c2C1=O [Example 5] .
Result: 8.07

Q: Query (molecule): COCC(=O)Nc1cc2c(cc1F)/C(=C/c1[nH]c3c(c1C)C(=O)N(CCN1CCOCC1)CCC3)C(=O)N2 [Example 18] ; field requested: pIC50
Result: 8.00

Further cases:
Q: Data request, read-out pIC50, for Cc1c(/C=C2\C(=O)Nc3cccc(-c4cccc(F)c4F)c32)[nH]c2c1C(=O)N(CCN1CCOCC1)CCC2 [Example 12]
Result: 9.00

---

Molecular target: recombinant human VEGF-R2 (Homo sapiens, UniProt P35968)
Sequence (P35968 20-1356): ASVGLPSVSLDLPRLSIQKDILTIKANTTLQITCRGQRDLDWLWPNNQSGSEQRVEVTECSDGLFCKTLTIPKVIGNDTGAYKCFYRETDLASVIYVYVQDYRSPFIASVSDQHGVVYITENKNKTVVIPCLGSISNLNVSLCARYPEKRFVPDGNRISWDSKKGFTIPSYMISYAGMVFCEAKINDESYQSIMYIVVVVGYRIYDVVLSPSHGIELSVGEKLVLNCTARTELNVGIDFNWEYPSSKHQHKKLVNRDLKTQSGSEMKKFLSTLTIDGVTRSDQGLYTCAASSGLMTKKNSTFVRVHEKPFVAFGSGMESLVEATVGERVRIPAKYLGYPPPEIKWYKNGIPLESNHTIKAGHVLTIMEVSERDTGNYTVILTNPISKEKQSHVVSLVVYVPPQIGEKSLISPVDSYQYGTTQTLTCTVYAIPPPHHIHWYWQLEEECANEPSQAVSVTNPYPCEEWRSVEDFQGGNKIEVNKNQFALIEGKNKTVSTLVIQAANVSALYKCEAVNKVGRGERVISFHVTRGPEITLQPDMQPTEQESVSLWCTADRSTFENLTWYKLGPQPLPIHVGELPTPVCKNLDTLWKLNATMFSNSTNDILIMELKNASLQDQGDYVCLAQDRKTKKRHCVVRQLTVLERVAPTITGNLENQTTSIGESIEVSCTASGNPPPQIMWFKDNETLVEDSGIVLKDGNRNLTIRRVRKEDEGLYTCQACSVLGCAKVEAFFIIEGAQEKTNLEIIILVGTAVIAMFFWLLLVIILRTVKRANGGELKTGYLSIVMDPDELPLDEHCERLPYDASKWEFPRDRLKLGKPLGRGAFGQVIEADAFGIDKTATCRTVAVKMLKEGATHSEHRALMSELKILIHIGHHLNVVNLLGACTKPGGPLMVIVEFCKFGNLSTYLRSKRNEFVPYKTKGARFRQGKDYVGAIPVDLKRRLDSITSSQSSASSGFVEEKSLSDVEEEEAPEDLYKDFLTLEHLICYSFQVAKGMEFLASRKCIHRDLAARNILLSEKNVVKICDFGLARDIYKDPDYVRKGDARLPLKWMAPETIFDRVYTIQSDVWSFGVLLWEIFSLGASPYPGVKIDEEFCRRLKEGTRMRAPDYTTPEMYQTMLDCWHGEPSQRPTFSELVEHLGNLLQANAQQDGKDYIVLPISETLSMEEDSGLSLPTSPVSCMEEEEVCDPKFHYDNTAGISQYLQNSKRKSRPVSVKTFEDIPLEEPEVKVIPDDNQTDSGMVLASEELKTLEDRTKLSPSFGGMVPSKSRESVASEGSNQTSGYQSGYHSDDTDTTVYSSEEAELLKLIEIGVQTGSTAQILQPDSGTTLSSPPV
Assay: VEGFR-2 kinase assay (ELISA, time-resolved fluorescence)
Conditions: recombinant human VEGF-R2, 10 μM ATP, 25° C., 30 minutes; read-out: IC50 (VEGFR-2/bio)
Outcome Measure: IC50 (nM)
Numbers only, in nM.

Please supply IC50 for each of the following items, keeping them in order.
1. CCN(CC)CCN1CCCc2[nH]c(/C=C3\C(=O)Nc4cc(NCc5ccc(F)cc5)c(F)cc43)c(C)c2C1=O
2. CCN(CC)CCN1CCCc2[nH]c(/C=C3\C(=O)Nc4cc(NC(=O)C(C)(C)O)c(F)cc43)c(C)c2C1=O
3. CCN(CC)CCN1CCCc2[nH]c(/C=C3\C(=O)Nc4cccc(Br)c43)c(C)c2C1=O
4. CCN(CC)CCN1CCCc2[nH]c(/C=C3\C(=O)Nc4cc(NC(=O)COC)c(F)cc43)c(C)c2C1=O
5. Cc1c(/C=C2\C(=O)Nc3c(NC=O)cc(F)cc32)[nH]c2c1C(=O)N(CCN1CCOCC1)CCC2
6. CCN(CC)CCN1CCCc2[nH]c(/C=C3\C(=O)Nc4cccc(-c5cccc(F)c5F)c43)c(C)c2C1=O

Result:
1. 280
2. 490
3. 3
4. 690
5. 72
6. 23

Q: Short answer please: IC50, recombinant human VEGF-R2 (Homo sapiens, UniProt P35968), entry `CCN(CC)CCN1CCCc2[nH]c(/C=C3\C(=O)Nc4cc(NC(=O)[C@H](C)O)c(F)cc43)c(C)c2C1=O`
Result: 115

---

Please respond with reported log10 of IC50 for every item in the list.
Target: recombinant human VEGF-R2 (Homo sapiens, UniProt P35968)
Assay: VEGFR-2 kinase assay (ELISA, time-resolved fluorescence)
Settings: recombinant human VEGF-R2, 10 μM ATP, 25° C., 30 minutes; read-out: IC50 (VEGFR-2/bio)
A value of 2 here means IC50 of 100 in nM, since values are log10.

Give log10 of IC50 for all compounds that follow.
1. CCN(CC)CCN1CCCc2[nH]c(/C=C3\C(=O)Nc4c(Br)cc(F)cc43)c(C)c2C1=O
2. CCN(CC)CCN1CCCc2[nH]c(/C=C3\C(=O)Nc4cccc(C)c43)c(C)c2C1=O
3. Cc1c(/C=C2\C(=O)Nc3cc(NC(=O)[C@H](C)O)c(F)cc32)[nH]c2c1C(=O)N(CCN1CCOCC1)CCC2
4. CCN(CC)CCN1CCCc2[nH]c(/C=C3\C(=O)Nc4cc(OC)ccc43)c(C)c2C1=O
5. CCN(CC)CCN1CCCc2[nH]c(/C=C3\C(=O)Nc4ncc(Br)cc43)c(C)c2C1=O
6. CCN(CC)CCN1CCCc2[nH]c(/C=C3\C(=O)Nc4cccc(CCO)c43)c(C)c2C1=O
7. CCN(CC)CCN1CCCc2[nH]c(/C=C3\C(=O)Nc4ccc(Cl)cc43)c(C)c2C1=O
8. Cc1c(/C=C2\C(=O)Nc3ccc(Cl)cc32)[nH]c2c1C(=O)N(CCN1CCOCC1)CCC2

Result:
[1.61, 0.11, 2.20, 0.30, 0.60, 0.00, 1.32, 1.15]
